measurement_target: ΔF508-CFTR (Homo sapiens, UniProt P13569, DEL508-508)
Construct: host or cells: CFBE41o-, doxycycline-inducible
Sequence (P13569 with tags, fused parts or gaps DEL508-508): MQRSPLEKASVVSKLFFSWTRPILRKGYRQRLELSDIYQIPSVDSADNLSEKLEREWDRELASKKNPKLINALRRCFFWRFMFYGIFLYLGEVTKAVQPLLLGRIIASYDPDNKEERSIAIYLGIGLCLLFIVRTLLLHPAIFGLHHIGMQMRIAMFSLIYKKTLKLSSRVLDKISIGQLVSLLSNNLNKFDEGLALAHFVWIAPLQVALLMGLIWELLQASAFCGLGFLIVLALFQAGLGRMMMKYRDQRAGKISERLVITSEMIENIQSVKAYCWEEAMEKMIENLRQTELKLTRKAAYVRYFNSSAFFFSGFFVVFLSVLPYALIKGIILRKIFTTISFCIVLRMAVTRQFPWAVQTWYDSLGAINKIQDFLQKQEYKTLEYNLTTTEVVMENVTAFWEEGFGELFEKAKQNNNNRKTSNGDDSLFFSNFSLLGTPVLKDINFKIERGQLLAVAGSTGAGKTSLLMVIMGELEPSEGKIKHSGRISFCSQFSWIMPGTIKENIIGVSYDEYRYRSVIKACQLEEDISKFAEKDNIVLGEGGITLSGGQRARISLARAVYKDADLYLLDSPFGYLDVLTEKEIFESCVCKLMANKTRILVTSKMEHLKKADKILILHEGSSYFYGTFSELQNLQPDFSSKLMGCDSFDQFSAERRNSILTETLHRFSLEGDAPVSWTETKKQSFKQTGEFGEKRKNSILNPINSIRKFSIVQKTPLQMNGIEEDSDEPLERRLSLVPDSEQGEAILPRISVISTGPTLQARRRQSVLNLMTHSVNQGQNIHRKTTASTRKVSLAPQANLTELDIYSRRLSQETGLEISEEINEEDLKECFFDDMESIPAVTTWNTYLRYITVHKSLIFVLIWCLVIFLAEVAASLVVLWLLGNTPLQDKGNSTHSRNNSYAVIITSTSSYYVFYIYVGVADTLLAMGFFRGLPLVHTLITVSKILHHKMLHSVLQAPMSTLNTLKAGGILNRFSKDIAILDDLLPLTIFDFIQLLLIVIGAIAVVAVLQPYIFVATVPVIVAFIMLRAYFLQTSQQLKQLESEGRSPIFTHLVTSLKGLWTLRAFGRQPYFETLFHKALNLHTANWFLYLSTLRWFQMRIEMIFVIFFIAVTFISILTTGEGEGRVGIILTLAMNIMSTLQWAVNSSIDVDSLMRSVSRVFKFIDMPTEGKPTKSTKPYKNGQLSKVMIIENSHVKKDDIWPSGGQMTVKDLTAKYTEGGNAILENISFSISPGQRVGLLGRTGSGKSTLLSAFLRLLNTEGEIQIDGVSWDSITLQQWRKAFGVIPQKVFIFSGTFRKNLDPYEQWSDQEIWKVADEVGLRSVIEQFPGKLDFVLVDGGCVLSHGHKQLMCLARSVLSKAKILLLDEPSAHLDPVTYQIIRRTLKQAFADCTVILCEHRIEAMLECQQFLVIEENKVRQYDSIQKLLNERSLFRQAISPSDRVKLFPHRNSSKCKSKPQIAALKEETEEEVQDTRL
method_description: CFTR cell surface levels using HRP-tagged ΔF508-CFTR expressing CFBE cells, intrinsic corrector capacity
Format: cell-based
measurement_conditions: HRP-tagged ΔF508-CFTR expressing CFBE cells; intrinsic corrector capacity (no co-corrector); 33° C., 20 hours
Classify as follows. Reported % Activation greater than or equal to 200%: Condition met. Reported % Activation below: Condition not met.

>>> class_name("CCN(CC)CCC1CCN(c2cc(C(=O)O)nc3c2c(C2CCC2)nn3-c2ccccc2)CC1 [compound 448]")
"Condition met"
>>> class_name("CCN(CC)CC1(N2CC(Oc3cc(C(=O)O)nc4c3c(C3CCC3)nn4-c3ccccc3)C2)COC1 [compound 646]")
"Condition not met"
>>> class_name("CN(c1cc(C(=O)O)nc2c1c(C1CCC1)nn2-c1ccccc1)[C@H]1C[C@@H](O)C1 [compound 533]")
"Condition not met"
>>> class_name("O=C(O)c1cc(OCCC2CCCCC2)c2c(C3CCC3)nn(-c3ccccc3)c2n1 [compound 633]")
"Condition not met"
>>> class_name("O=C1CC[C@H](COc2cc(C(=O)O)nc3c2c(C2CCC2)nn3-c2ccccc2)N1 [compound 617]")
"Condition not met"
>>> class_name("CN1CCN(c2ccc(-c3cc(C(=O)O)nc4c3c(C3CCC3)nn4C3CCCCC3)cn2)CC1 [compound 877]")
"Condition not met"
>>> class_name("O=C(O)c1cc(N2CCC3C(CCN3C3COC3)C2)c2c(C3CCC3)nn(-c3ccc(F)cc3)c2n1 (stereo not drawn) [compound 902]")
"Condition not met"
>>> class_name("O=C(O)c1cc(N2CC(OCC(F)F)C2)c2c(C3CCC3)nn(-c3ccccc3)c2n1 [compound 513]")
"Condition not met"
>>> class_name("O=C(O)c1cc(OCC2CCCC2(F)F)c2c(C3CCC3)nn(-c3ccccc3)c2n1 (stereo not drawn) [compound 486]")
"Condition not met"
>>> class_name("COC(C)(C)C1CCN(c2cc(C(=O)O)nc3c2c(C(C)C)nn3-c2ccc(F)cc2)CC1 [compound 438]")
"Condition met"
>>> class_name("CC(C)N1CCC(Oc2cc(C(=O)O)nc3c2c(C2CCC2)nn3-c2ccccc2)CC1 [compound 647]")
"Condition not met"
>>> class_name("COC1CCN(CC2CCN(c3cc(C(=O)O)nc4c3c(C3CCC3)nn4-c3ccccc3)CC2)CC1 [compound 841]")
"Condition met"
>>> class_name("COC(C)C1CCN(c2cc(C(=O)O)nc3c2c(C2CCC2)nn3-c2ccccc2)CC1 (stereo not drawn) [compound 498]")
"Condition met"
>>> class_name("CN(C1CCOCC1)C1CCN(c2cc(C(=O)O)nc3c2c(C2CCC2)nn3-c2ccc(F)cc2)CC1 [compound 854]")
"Condition not met"
>>> class_name("O=C(O)c1cc(N2CCN(C3CCC3)CC2)c2c(C3CCC3)nn(-c3ccccc3)c2n1 [compound 450]")
"Condition not met"
>>> class_name("O=C(O)c1cc(N2CCC(N3CCCC(F)C3)CC2)c2c(C3CCC3)nn(-c3ccc(F)cc3)c2n1 (stereo not drawn) [compound 872]")
"Condition met"
>>> class_name("CCOC(=O)N1CCN(c2cc(C(=O)O)nc3c2c(C2CCC2)nn3-c2ccccc2)CC1 [compound 539]")
"Condition met"
>>> class_name("O=C(O)c1cc(N2CC(N3CCOC3=O)C2)c2c(C3CCC3)nn(-c3ccccc3)c2n1 [compound 529]")
"Condition not met"
>>> class_name("COC1CN(CC2CCN(c3cc(C(=O)O)nc4c3c(C3CCC3)nn4-c3ccccc3)CC2)C1 [compound 829]")
"Condition not met"
>>> class_name("CN1C(=O)CO[C@H]2CN(c3cc(C(=O)O)nc4c3c(C3CCC3)nn4-c3ccccc3)C[C@@H]21 [compound 516]")
"Condition not met"
>>> class_name("COC1CN(C(=O)COc2cc(C(=O)O)nc3c2c(C2CCC2)nn3-c2ccccc2)C1 [compound 481]")
"Condition not met"

====

measurement_target: ΔF508-CFTR (Homo sapiens, UniProt P13569, DEL508-508)
Construct: host or cells: CFBE41o-, doxycycline-inducible
method_description: CFTR cell surface levels using HRP-tagged ΔF508-CFTR expressing CFBE cells, in the presence of a co-corrector
Type: cell-based
measurement_conditions: HRP-tagged ΔF508-CFTR expressing CFBE cells, in the presence of 3 μM co-corrector
Below, each entry is listed alongside its reported % Activation.
endpoint_name: % Activation (%)

>>> measured("CC(C)(C)OC(=O)N1CC[C@@H]2CN(c3cc(C(=O)O)nc4c3c(C3CCC3)nn4-c3ccccc3)CC[C@@H]21 (racemic)")
467.2
>>> measured("O=C(O)c1cc(N2CC(N3CCCC3)C2)c2c(C3CCC3)nn(-c3ccccc3)c2n1")
236.7
>>> measured("CO[C@H]1CCN(c2cc(C(=O)O)nc3c2c(C)nn3-c2ccccc2)C1")
164
>>> measured("CC(C)c1nn(-c2ccc(F)cc2)c2nc(C(=O)O)cc(N3CCC(N(C)C)CC3)c12")
284.47
>>> measured("O=C(O)c1cc(N2CCCC3(CC3)C2)c2c(C3CCC3)nn(-c3ccccc3)c2n1")
293.9

====

measurement_target: ΔF508-CFTR (Homo sapiens, UniProt P13569, DEL508-508)
Construct: host or cells: CFBE41o-, doxycycline-inducible
method_description: CFTR cell surface levels using HRP-tagged ΔF508-CFTR expressing CFBE cells, intrinsic corrector capacity
Type: cell-based
measurement_conditions: HRP-tagged ΔF508-CFTR expressing CFBE cells; intrinsic corrector capacity (no co-corrector); 33° C., 20 hours
Below, each entry is listed alongside its reported % Activation.
endpoint_name: % Activation (%)

>>> measured("O=C(O)c1cc(N2CCC(N3CCN(C4COC4)CC3)CC2)c2c(C3CCC3)nn(-c3ccc(F)cc3)c2n1")
210.9
>>> measured("CCCN1CCN(c2cc(C(=O)O)nc3c2c(C(C)C)nn3-c2ccc(F)cc2)CC1")
95
>>> measured("CC(C)N1CCN(c2ccc(-c3cc(C(=O)O)nc4c3c(C3CCC3)nn4C3CCCCC3)cn2)CC1")
146.9
>>> measured("O=C(O)c1cc(OCCCF)c2c(C3CCC3)nn(-c3ccccc3)c2n1")
106.4
>>> measured("N#CC1CCN(c2ccc(-c3cc(C(=O)O)nc4c3c([C@H]3C[C@H](F)C3)nn4-c3ccccc3)cn2)CC1")
185.45
>>> measured("O=C(O)c1cc(N2CC3(CCOCC3)C2)c2c(C3CCC3)nn(-c3ccccc3)c2n1")
123.35
>>> measured("CC1(CCOc2cc(C(=O)O)nc3c2c(C2CCC2)nn3-c2ccccc2)CC1")
99.143
>>> measured("N#CC1CCN(C2CCN(c3cc(C(=O)O)nc4c3c(C3CCC3)nn4-c3ccc(F)cc3)CC2)C1 (stereo not drawn)")
304.4
>>> measured("COC1CCCN(c2cc(C(=O)O)nc3c2c(C2CCC2)nn3-c2ccccc2)C1 (stereo not drawn)")
120.3

====

measurement_target: ΔF508-CFTR (Homo sapiens, UniProt P13569, DEL508-508)
Construct: host or cells: CFBE41o-, doxycycline-inducible
method_description: CFTR cell surface levels using HRP-tagged ΔF508-CFTR expressing CFBE cells, intrinsic corrector capacity
Assay type: cell-based
measurement_conditions: HRP-tagged ΔF508-CFTR expressing CFBE cells; intrinsic corrector capacity (no co-corrector); 33° C., 20 hours; read-out: EC50
endpoint_name: EC50 (nM)

>>> measured("CN1CCC(C2CCN(c3cc(C(=O)O)nc4c3c(C3CCC3)nn4-c3ccccc3)CC2)CC1")
998
>>> measured("O=C(O)c1cc(N2CCN(CC3CCCO3)CC2)c2c(C3CCC3)nn(-c3ccccc3)c2n1 (centres unmarked)")
408
>>> measured("CC(C)c1nn(-c2ccc(F)cc2)c2nc(C(=O)O)cc(N3CCC[C@@H](O)C3)c12")
1670
>>> measured("COCC(COC)Oc1cc(C(=O)O)nc2c1c(C1CCC1)nn2-c1ccccc1")
2280
>>> measured("CN(C[C@H]1CCN(c2cc(C(=O)O)nc3c2c(C2CCC2)nn3-c2ccccc2)C1)C(=O)OC(C)(C)C")
659
>>> measured("O=C(O)c1cc(N2CC[C@@H](N3CCOCC3)C2)c2c(C3CCC3)nn(-c3ccccc3)c2n1")
3030
>>> measured("CCOCCN1CCN(C2CCN(c3cc(C(=O)O)nc4c3c(C(C)C)nn4-c3ccc(F)cc3)CC2)CC1")
573
>>> measured("O=C(O)c1cc(N2CCC(N3CCC(F)(F)CC3)CC2)c2c(C3CCC3)nn(-c3ccc(F)cc3)c2n1")
74.1
>>> measured("COCCN1CCN(c2ccc(-c3cc(C(=O)O)nc4c3c(C3CCC3)nn4C3CCCCC3)cn2)CC1")
221
>>> measured("O=C(O)c1cc(N2CCC(C(F)CO)CC2)c2c(C3CCC3)nn(-c3ccccc3)c2n1 (centres unmarked)")
583
>>> measured("CN(CCCN(C)C1CCCCC1)c1cc(C(=O)O)nc2c1c(C1CCC1)nn2-c1ccccc1")
1670
>>> measured("CC(C)c1nn(-c2ccc(F)cc2)c2nc(C(=O)O)cc(N3CCN4CCC[C@@H]4C3)c12")
1670
>>> measured("CC(C)c1nn(-c2ccc(F)cc2)c2nc(C(=O)O)cc(N3CCC(C4CCN(C)CC4)CC3)c12")
565
>>> measured("CN(C)CC1CN(c2cc(C(=O)O)nc3c2c(C2CCC2)nn3-c2ccccc2)CCO1 (centres unmarked)")
1770
>>> measured("CC(C)(C)OC(=O)N1CCC(Oc2nn(-c3ccccc3)c3nc(C(=O)O)cc(-c4ccc(N5CCC(C#N)CC5)nc4)c23)C1 (centres unmarked)")
370
>>> measured("CC1(C)CN(C2CCN(c3cc(C(=O)O)nc4c3c(C3CCC3)nn4-c3ccc(F)cc3)CC2)CCO1")
301
>>> measured("O=C(O)c1cc(-c2ccc(N3CCN(C4CC4)CC3)nc2)c2c(C3CCC3)nn(C3CCCCC3)c2n1")
239
>>> measured("O=C(O)c1cc(N2CCC3(CC2)CCN(C2CC2)CC3)c2c(C3CCC3)nn(-c3ccc(F)cc3)c2n1")
361
>>> measured("O=C(O)c1cc(N2CCC(N3CCCC(C(F)(F)F)C3)CC2)c2c(C3CCC3)nn(-c3ccc(F)cc3)c2n1 (centres unmarked)")
170
